Listing of recorded SH2 binding enrichment by entry.
target: SHP2-C SH2; experiment: SH2 binding enrichment of the phosphorylated peptide, bacterial display (enrichment ratio); higher = better substrate or ligand; peptides without Tyr show the background;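 note: peptide library displayed on the E. coli surface as eCPX fusions, selected cells deep-sequenced, score is each peptide's frequency after selection divided by its frequency in the input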
Give the value as a plain number.

INSERT INTO measurements (residue_sequence, test_target, observed_value) VALUES
  ('HRGSLYLAIEY [TEK_Y899_Y897S]', 'SHP2-C SH2', 0.501),
  ('PSELFYSKISP [SMG1_Y2254_G2258S_YF]', 'SHP2-C SH2', 3.93),
  ('RLSVDYGKKSK [TUBA3E_Y161_S162G]', 'SHP2-C SH2', 0.843);

Ask | Would you kindly share the measured SH2 binding enrichment for IDPYIYTPFGS [CYP3A4_Y432] ?
Reply | 0.868

Ask | Reported SH2 binding enrichment for ANFTEYVATRW [CDKL5_Y171_YF] : what is it?
Reply | 0.595

Ask | Using the record for SAEEDYIADAK [KCNT1_Y876_M877I] , report its SH2 binding enrichment.
Reply | 0.709

Ask | So what's the measured SH2 binding enrichment for this one? EALDFYGELRT [PTEN_Y155_V158L]
Reply | 0.731

Ask | Data request, read-out SH2 binding enrichment, for STEAIYRRFSK [SH3PXD2B_Y42_YF]
Reply | 0.553

Ask | # SH2 binding enrichment lookup, item DIRAQYDELAR [KRT18_Y256]
Reply | 0.702

Ask | Any idea what SH2 binding enrichment was measured for GCKNRYDKGKP [THAP1_Y14_D17G] ?
Reply | 1.32

Ask | Given the sequence SEASYYKSLNL [NGEF_Y289] , what is its reported SH2 binding enrichment?
Reply | 0.644

Ask | Please give the measured SH2 binding enrichment for this sequence: AEYGLYAAMVR [VSX2_Y222_G223A]
Reply | 0.574

Ask | // SH2 binding enrichment lookup, key: FGIAQYCCRMG [LRRK2_Y2023_YF]
Reply | 0.836

Ask | Could you share which SH2 binding enrichment value was measured for QQTFTYDSGIH [JUP_Y22_YF] ?
Reply | 0.809

Ask | Find the recorded SH2 binding enrichment belonging to RAILNYIASKF [GSTA3_Y74_YF] and report it.
Reply | 0.611

Ask | I'd like to know its SH2 binding enrichment. The sequence in question is RHIEKYVDQGK [IRAK3_Y61]
Reply | 0.834

====

Collected phosphorylation enrichment values appear next to each entry.
biological target: FGFR3 (UniProt P22607); test: phosphorylation enrichment, bacterial display (enrichment ratio); higher = better substrate or ligand; peptides without Tyr show the background
Sequence (P22607 whole entry, looked up): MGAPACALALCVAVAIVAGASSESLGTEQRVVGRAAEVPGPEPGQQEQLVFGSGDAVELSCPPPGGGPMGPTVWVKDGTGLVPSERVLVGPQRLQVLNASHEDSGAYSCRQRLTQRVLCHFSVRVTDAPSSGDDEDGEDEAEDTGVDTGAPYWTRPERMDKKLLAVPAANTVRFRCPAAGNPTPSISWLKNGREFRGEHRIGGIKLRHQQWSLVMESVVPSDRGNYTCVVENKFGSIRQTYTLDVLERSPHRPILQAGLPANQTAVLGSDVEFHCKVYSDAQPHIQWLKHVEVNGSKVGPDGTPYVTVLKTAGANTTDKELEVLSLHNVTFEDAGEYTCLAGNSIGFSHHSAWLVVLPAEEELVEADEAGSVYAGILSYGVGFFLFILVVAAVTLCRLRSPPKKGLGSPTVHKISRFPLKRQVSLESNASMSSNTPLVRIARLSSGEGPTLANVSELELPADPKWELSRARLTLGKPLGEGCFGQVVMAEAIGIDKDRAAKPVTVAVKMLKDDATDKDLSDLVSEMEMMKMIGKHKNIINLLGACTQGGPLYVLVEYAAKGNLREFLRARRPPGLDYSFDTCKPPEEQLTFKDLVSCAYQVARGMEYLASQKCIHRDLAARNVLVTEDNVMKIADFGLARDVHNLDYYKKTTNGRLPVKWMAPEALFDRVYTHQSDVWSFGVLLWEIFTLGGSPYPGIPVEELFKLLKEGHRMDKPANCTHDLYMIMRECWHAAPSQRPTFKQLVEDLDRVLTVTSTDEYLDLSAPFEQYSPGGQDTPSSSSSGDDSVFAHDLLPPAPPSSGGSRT

As a guide, the following entries are already answered.
INSERT INTO results (residue_sequence, observed_value) VALUES
  ('LWQTIYNLEAE [TNNT2_Y251_S249T]', 1.13),
  ('SSVKLYRVFCD [FGB_Y266_P265L_YF]', 0.749),
  ('NHFKICNLCAE [PTEN_Y68_Y68C_YF]', 0.544),
  ('RYMELYDLNRD [BBS2_Y648]', 1.24),
  ('SLNEEYAKNKT [MSH2_Y563_T564A]', 0.538),
  ('RLSVDYGKKSK [TUBA3E_Y161_S162G]', 0.642),
  ('ETPSEYLEIVR [TMEM130_Y412]', 0.77),
  ('SVESPYGSVTF [NDRG2_Y47_T45S]', 0.496),
  ('KDFTKYVAYIE [KDM4B_Y31_N29T]', 0.734),
  ('CTLTHYKSAVK [ASNS_Y555_R550C]', 0.529);

--- query ---
Ask | Recorded phosphorylation enrichment for RSAGKDDVYLI [MECP2_Y120_Y120D] , please?
Reply | 0.594

====

target: Fyn (UniProt P06241); test: phosphorylation enrichment, bacterial display (enrichment ratio); higher = better substrate or ligand; peptides without Tyr show the background
Sequence (P06241 whole entry, looked up): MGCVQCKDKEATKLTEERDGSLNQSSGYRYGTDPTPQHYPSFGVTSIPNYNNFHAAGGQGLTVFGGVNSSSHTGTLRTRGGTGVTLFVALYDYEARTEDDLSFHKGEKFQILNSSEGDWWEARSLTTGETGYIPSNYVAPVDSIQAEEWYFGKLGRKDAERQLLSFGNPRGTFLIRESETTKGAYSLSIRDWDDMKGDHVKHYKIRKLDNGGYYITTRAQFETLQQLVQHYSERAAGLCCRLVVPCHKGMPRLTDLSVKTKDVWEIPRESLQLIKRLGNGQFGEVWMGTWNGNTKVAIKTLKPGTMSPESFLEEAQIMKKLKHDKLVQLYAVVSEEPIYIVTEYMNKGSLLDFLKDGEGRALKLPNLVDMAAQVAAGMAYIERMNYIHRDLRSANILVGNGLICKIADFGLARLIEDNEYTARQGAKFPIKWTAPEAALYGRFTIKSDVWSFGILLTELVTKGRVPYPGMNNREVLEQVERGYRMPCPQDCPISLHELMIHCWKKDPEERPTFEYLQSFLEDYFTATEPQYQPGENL
Reported Endpoint: phosphorylation enrichment
# respond with the number and nothing more

Worked set:
INSERT INTO results (residue_sequence, reported_endpoint, observed_value) VALUES
  ('EGVPLYESATT [DCC_Y809]', 'phosphorylation enrichment', 1.09),
  ('AFGEVYEGQVS [ALK_Y1131]', 'phosphorylation enrichment', 0.772),
  ('SVVVPYEPSEV [TP53_Y220_P223S]', 'phosphorylation enrichment', 0.554);

Ask | Reported phosphorylation enrichment for EWQQIYTFDSG [JUP_Y20_T19I_YF] : what is it?
Reply | 11.9

Ask | So what's the measured phosphorylation enrichment for this one? LNSFIYSLRNR [OR1A1_Y288_P285S]
Reply | 2.42

Ask | Which measured phosphorylation enrichment value corresponds to SETDDYAEIID [PTK2_Y397] ?
Reply | 0.573

Ask | Could you share which phosphorylation enrichment value was measured for GFGGGYGGVLT [KRT19_Y65_A60G_YF] ?
Reply | 0.47

====

biological target: FGFR3 (UniProt P22607); assay: phosphorylation enrichment, bacterial display (enrichment ratio); higher = better substrate or ligand; peptides without Tyr show the background
Label rule, in plain words: phosphorylation enrichment of 0.8 and up is Met, under 0.8 is Not met.

// below: answered sequences
INSERT INTO measurements (residue_sequence, label_value) VALUES
  ('ERIELYELDKK [PMM2_Y145_F144L]', 'Not met'),
  ('PICEGYALPHA [ACTC1_Y171_Y168C]', 'Not met'),
  ('LTERDYSFVTT [ACTG2_Y199_G198D]', 'Met');

Ask | Does phosphorylation enrichment meet or surpass 0.8 for SVVVPDEPPEV [TP53_Y220_Y220D] ?
Reply | Not met

Ask | Check the entry EWQQIYTFDSG [JUP_Y20_T19I_YF] : does phosphorylation enrichment equal or exceed 0.8?
Reply | Met

Ask | Quick check, phosphorylation enrichment >= 0.8? NAPNSYGRRPT [CDKN2A_Y44_I49T]
Reply | Not met

Ask | Kindly determine if phosphorylation enrichment recorded for EFNINYNNEPP [THG1L_Y228_L232P] is above or exactly 0.8.
Reply | Not met

====

system: AncSZ; assay: phosphorylation enrichment, bacterial display (enrichment ratio); higher = better substrate or ligand; peptides without Tyr show the background
Hi, to clarify the labels: Met covers phosphorylation enrichment from 0.7 upward, Not met covers anything below 0.7.

Please review the entries below; each comes with its answer.
INSERT INTO measurements (residue_sequence, label_value) VALUES
  ('LSDGPYSSPYE [EPOR_Y485_N487S]', 'Met'),
  ('EAEPYYCSLRD [NPHS1_Y1139_R1140C]', 'Met'),
  ('SECCKYKIDNP [OSMR_Y689]', 'Not met'),
  ('SVVVPSEPPEV [TP53_Y220_Y220S]', 'Met'),
  ('GFWPRYVKVGS [NOG_Y172_R167G]', 'Met'),
  ('SARSAYQEAID [SFN_Y151_M155I]', 'Met'),
  ('VRLTEYPCAGL', 'Not met'),
  ('GVTLLCYGRYN [ADGRD1_Y85_Y85C]', 'Met');

Ask | Record DRFANYIEKVR [DES_Y122] ; criterion: phosphorylation enrichment no lower than 0.7. Met?
Reply | Not met

Ask | Could you tell me if the measured phosphorylation enrichment of TWSRSYRSDRL [CRYBB1_Y131_S129R] reaches 0.7 or more?
Reply | Not met

Ask | Would you say WNNLDYMDSRR [GAA_Y407_D404N] shows phosphorylation enrichment at minimum 0.7?
Reply | Met

Ask | Assess whether reported phosphorylation enrichment for TQPSPYAVFLF [RPGRIP1_Y823_R827L_YF] sits at 0.7 or higher.
Reply | Met

Ask | hey, is phosphorylation enrichment for this one >= 0.7? GMAHNYRNRSQ [AASS_Y188_S191R]
Reply | Not met

Ask | Evaluate LAIERYVVVCK [RHO_Y136] : phosphorylation enrichment at minimum 0.7?
Reply | Met

====

molecular target: EPHB1 (UniProt P54762); test: phosphorylation enrichment, bacterial display (enrichment ratio); higher = better substrate or ligand; peptides without Tyr show the background
Sequence (P54762 whole entry, looked up): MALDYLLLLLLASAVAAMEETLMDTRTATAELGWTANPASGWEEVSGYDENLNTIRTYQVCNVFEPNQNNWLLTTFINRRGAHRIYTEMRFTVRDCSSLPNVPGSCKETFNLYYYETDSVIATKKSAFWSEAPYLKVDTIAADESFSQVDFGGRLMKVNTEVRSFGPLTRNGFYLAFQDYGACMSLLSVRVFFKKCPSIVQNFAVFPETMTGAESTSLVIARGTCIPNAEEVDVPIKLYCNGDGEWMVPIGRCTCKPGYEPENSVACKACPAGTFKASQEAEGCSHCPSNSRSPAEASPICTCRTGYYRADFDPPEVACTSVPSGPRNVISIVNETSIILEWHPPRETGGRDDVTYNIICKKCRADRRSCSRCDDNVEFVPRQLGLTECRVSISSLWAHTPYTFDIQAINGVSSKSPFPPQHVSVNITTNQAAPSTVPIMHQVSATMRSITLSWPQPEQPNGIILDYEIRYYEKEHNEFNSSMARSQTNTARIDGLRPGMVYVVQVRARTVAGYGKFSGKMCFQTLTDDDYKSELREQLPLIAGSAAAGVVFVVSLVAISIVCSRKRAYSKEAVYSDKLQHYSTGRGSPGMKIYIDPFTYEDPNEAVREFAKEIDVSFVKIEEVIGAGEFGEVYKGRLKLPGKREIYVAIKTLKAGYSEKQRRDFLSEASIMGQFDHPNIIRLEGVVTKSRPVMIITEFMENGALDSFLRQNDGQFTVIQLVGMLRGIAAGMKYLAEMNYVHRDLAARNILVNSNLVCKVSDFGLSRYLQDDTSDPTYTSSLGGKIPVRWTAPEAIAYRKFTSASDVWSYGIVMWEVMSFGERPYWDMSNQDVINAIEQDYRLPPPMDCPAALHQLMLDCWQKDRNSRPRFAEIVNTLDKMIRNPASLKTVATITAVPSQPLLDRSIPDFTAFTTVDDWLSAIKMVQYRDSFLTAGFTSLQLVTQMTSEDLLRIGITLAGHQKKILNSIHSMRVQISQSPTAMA
Recorded phosphorylation enrichment split into classes low interval: < 0.5; middle interval: ≥ 0.5 and < 0.9; high interval: ≥ 0.9

Ask | Returns: class label. Input: IRRWVYPLTPE [EIF2B5_Y319]
Reply | low interval

Ask | Could you tell me which band GLDGRYLLRDS [SH2D1A_Y29_S28R] belongs to?
Reply | low interval

Ask | Which phosphorylation enrichment category applies to ELAINYQEQAS [SLC9A9_Y591] here?
Reply | middle interval

Ask | Textbook exercise: identify the category of the sequence given here, SEPSGYQDNIA [DES_Y363_A360P] , according to its measured value.
Reply | middle interval

Ask | Category lookup for the sequence YRVAGYKTQGG [TIA1_Y383_E384K]
Reply | low interval

Ask | Any idea which band VFSTDCFRVGG [NTRK2_Y706_Y706C_YF] is in?
Reply | middle interval

Ask | Lab note: which band did GDGRFYMMEAI [PGM1_Y66_K68M] land in?
Reply | middle interval

Ask | GET /class?item= LRNIDYHRLDG [ATRX_Y2083_Y2084H]
Reply | low interval

Ask | Category of ITSLLYHVVGW [GBA_Y412_N409S] :
Reply | high interval

Ask | Into which category would you place LKGQVYILGWE [ASS1_Y359_R363W] ?
Reply | middle interval

Ask | # classify by phosphorylation enrichment band: RDLRTYIMPAH [PNMT_Y256]
Reply | high interval
